Target: Tyrosine-protein kinase JAK1 (Homo sapiens, UniProt P23458)
Sequence (P23458 whole entry): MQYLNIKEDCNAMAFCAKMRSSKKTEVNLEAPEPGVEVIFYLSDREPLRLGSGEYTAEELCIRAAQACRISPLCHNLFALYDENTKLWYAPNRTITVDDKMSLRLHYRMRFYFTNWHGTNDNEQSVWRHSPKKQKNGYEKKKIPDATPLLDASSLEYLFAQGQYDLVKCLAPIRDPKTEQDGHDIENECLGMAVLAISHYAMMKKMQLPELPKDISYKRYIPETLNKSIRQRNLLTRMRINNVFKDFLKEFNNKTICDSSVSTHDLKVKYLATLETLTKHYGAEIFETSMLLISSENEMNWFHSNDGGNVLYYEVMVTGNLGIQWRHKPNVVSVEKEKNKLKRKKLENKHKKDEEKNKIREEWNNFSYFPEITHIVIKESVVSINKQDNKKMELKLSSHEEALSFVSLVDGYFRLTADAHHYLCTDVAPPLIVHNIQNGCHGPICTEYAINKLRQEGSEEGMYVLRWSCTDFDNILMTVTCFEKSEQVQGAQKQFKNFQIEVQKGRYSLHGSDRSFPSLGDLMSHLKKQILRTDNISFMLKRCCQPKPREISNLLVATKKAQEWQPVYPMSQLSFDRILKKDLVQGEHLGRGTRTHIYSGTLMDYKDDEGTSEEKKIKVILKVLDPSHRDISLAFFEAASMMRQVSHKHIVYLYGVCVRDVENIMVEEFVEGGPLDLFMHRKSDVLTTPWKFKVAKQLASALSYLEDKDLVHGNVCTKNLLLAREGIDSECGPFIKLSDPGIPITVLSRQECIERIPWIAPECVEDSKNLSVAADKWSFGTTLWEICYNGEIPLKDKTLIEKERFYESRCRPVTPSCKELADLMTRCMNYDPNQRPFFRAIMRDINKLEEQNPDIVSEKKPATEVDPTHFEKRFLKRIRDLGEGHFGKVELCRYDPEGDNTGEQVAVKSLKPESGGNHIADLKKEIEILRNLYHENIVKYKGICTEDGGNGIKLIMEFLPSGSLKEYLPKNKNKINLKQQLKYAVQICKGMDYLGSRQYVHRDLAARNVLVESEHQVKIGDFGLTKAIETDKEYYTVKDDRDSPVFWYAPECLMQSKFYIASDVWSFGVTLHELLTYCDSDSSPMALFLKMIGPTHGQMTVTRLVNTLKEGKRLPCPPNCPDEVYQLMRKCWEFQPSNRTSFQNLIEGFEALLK
Assay: Inhibition of JAK1 in human NCI-H1975 cells assessed as reduction in STAT3 phosphorylation after 1 hr by ELISA
readoutType: EC50 (nM)

Cc1cnc(Nc2cc(N3C[C@@H](C)N[C@@H](C)C3)cc(S(C)(=O)=O)c2)nc1Nc1cccc(CO)c1	325
Cc1cnc(Nc2cc(N3C[C@@H]4C[C@H]3CN4C)cc(S(C)(=O)=O)c2)nc1Nc1cccc(CO)c1	92
CC[C@@H](C)Nc1nc(Nc2cc(N3C[C@@H]4C[C@H]3CN4C)cnc2F)ncc1C	30
Cc1cnc(Nc2cc(N3C[C@@H]4C[C@H]3CN4C)cnc2F)nc1Nc1cccc(CO)c1	68

1: Cc1cnc(Nc2cc(N3CCNCC3)cc(S(C)(=O)=O)c2)nc1Nc1cccc(CO)c1
2: CCC(CC)Nc1nc(Nc2cc(N3C[C@@H]4C[C@H]3CN4C)cnc2F)ncc1C
Asked: For the pair 1 and 2 , which entry has the numerically smaller recorded EC50? Lab note: record the label of whichever item you select.
Given back: 2
(2: 44 nM, 1: 496 nM)

I: Cc1cnc(Nc2cc(C(F)F)cc(N3C[C@@H]4C[C@H]3CN4C)c2)nc1Nc1cccc(CO)c1
II: COCCN1CCN(c2cc(Nc3ncc(C)c(Nc4cccc(CO)c4)n3)cc(S(C)(=O)=O)c2)CC1
III: Cc1cnc(Nc2cc(N3C[C@@H]4C[C@H]3CN4C)ccc2F)nc1Nc1cccc(CO)c1
Asked: Order the entries by their reported EC50, beginning at the minimum. Please list each label once, in the requested order.
Given back: I, III, II

a: Cc1cnc(Nc2cc(N3C[C@@H]4C[C@H]3CN4C)cc(C(F)F)c2F)nc1Nc1cccc(CO)c1
b: Cc1cnc(Nc2cc(N3C[C@@H]4C[C@H]3CN4C)cnc2F)nc1N[C@H](C)C(C)C
Asked: For the pair a and b , which entry has the numerically smaller recorded EC50? Lab note: record the label of whichever item you select.
Given back: a

Cited source: ChEMBL document CHEMBL4138312
